Catalogue of Minimal Inhibitory Concentration (MIC) values
Test system: Klebsiella Pneumoniae
Experiment: Antibacterial activity MIC assay (two-fold dilution agar plating)
Type: cell-based
Details: Klebsiella Pneumoniae ATCC 700603, ESBLs(+)
Where a SMILES comes first, the peptide text is derived from it. Bridges are numbered along the chain shown (N, C = ends). [ ]: non-standard residue; d: D form. The star is where a group is joined. Heptanoyl(6-Me) = CC(C)CCCCC(=O)*; Dab = NCC[C@H](N)C(=O)O
Dear colleague, please return just the value in µg/mL, with no unit written.

* CC(C)CCCCC(=O)N[C@@H](CCN)C(=O)N[C@H](C(=O)N[C@@H](CCN)C(=O)N[C@H]1CCNC(=O)[C@H]([C@@H](C)O)NC(=O)[C@H](CCN)NC(=O)[C@H](CCN)NC(=O)[C@H](CC(C)C)NC(=O)[C@@H](CC(C)C)NC(=O)[C@H](CCN)NC1=O)[C@@H](C)O [Colistin B, colistin B, reference compound] ({Heptanoyl(6-Me)}-[Dab]T[Dab][Dab][Dab][dL]L[Dab][Dab]T; lactam 4-C) | 2

Requested field: Minimal Inhibitory Concentration (MIC). Item: C=CCON=C(C(=O)NC1C(=O)N(OS(=O)(=O)O)C1(C)C)c1csc(N)n1 (stereo not shown) 16

Further, for `CC1(C)[C@H](NC(=O)/C(=N\OC2(C(=O)O)CC2)c2nsc(N)n2)C(=O)N1OS(=O)(=O)O` ? 64

Further, for C#CCON=C(C(=O)NC1C(=O)N(OS(=O)(=O)O)C1(C)C)c1csc(N)n1 (stereo not shown) ? 16
